Measured values drawn from the supplement of paper PMC10567573 for this set.

# ASSAY_REMARKS: protein stability index of a GFP-peptide fusion (GPS, HEK-293T) (PSI 1-6); higher = more stable;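 also: 24-mer peptide tiles fused after GFP, lentivirally expressed, FACS-sorted into six equal bins by GFP/DsRed ratio, decoded by Illumina sequencing, PSI is the read-weighted mean bin number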
# MEASUREMENT_CONTEXT: treatment: DMSO; c terminus: a fixed tail appended
METRIC: protein stability index

sequence_string="KMKQLTEETEVLAHEIERLQMEMK [TRIM35]" result_value=4.06
sequence_string="FSPANPESSMEDCLAHLGEKVSQE [BCL2L13]" result_value=5.2
sequence_string="ASIHWDWKIALLFVAFALCMFCLY [SLC35F2]" result_value=2.17
sequence_string="CKLILSLEPDEDPLCMLLLIDHLA [TCF25]" result_value=2.82
sequence_string="SLDESVIYGPGNLSTNNNTLRDHF [SLC2A12]" result_value=3.63
sequence_string="EISVDSLDFSKKILHTAWHPSENI [PPP2R2B]" result_value=2.28
sequence_string="KSKLTYMCRVDLRGHMPEWYTKSF [DLC1]" result_value=2.68
sequence_string="SSPRSVDSYSSTQHVPEELDLSSS [ATF6]" result_value=5.29
sequence_string="HLPWQYHAGQGGLFYSAEVEMLCD [CCDC3]" result_value=2.94
sequence_string="LSVTISFRIYKSVIQAVQKSEEGH [RTN3]" result_value=3.26
sequence_string="LTKFLEEHPGGEEVLREQAGGDAT [CYB5A]" result_value=5.44
sequence_string="SRARSASSPRGMVRVCDLLLKKKP [ANKRD17]" result_value=3.61
sequence_string="EEEENRDSQQPGKRRKDSEEEAAS [FANCE]" result_value=5.78
sequence_string="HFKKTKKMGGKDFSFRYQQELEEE [ATL3]" result_value=2.59
sequence_string="GPIQLWQFLLELLSDKSCQSFISW [ETS2]" result_value=2.62
sequence_string="PDDRLTCSQLLESSYFDSFQEAQI [CDKL4]" result_value=3.91

* * *

# ASSAY_REMARKS: protein stability index of a GFP-peptide fusion (GPS, HEK-293T) (PSI 1-6); higher = more stable
# MEASUREMENT_CONTEXT: treatment: DMSO; c terminus: a fixed tail appended
Assign criterion met whenever protein stability index does not fall below 4; assign criterion not met whenever it does.

sequence_string="KVKKLKNLKTLDSKPGVYTSYKPY [DENND6A]" class_label="criterion not met"
sequence_string="IGNLVKILHGTRGELLLDVAWHPV [RBBP5]" class_label="criterion not met"
sequence_string="ADQTVLTEDEKKELENLAAMDLEL [CHGB]" class_label="criterion met"
sequence_string="AVEISDHPGEHEVGEPEFHYIAGA [CPXM2]" class_label="criterion met"
sequence_string="GGAGREDPGLWSRLCRLAGASSPA [ZSWIM9]" class_label="criterion not met"
sequence_string="TDSEHSDAEVSCTDNGTFNLSRGQ [RETREG3]" class_label="criterion met"
sequence_string="SGSGGTVAPATMGSARSHASSRAS [ZBTB22]" class_label="criterion met"
sequence_string="ESQSTSLRGSYNSLHDGSDGLDGI [LURAP1L]" class_label="criterion met"
sequence_string="CTGITRLQRWCRAKHMGLEPPPEV [POLD4]" class_label="criterion not met"
sequence_string="NSAAHLFGYRPYDKNISPRENILV [SCD]" class_label="criterion not met"
sequence_string="VLRGLARPEHPPPAPTGQDDPQSQ [TMEM175]" class_label="criterion met"
sequence_string="CMVCKKKIGNSAFARYPNGVVVHY [VPS39]" class_label="criterion not met"
sequence_string="SEWQRKLEAAEALLTLRNSAQAPP [DMRTC1]" class_label="criterion met"
sequence_string="TMARIRRVYVSGLMKGGADLFVEN [APMAP]" class_label="criterion not met"
sequence_string="LRHLELLDEFARENIDSLYNVNLS [SCNN1D]" class_label="criterion not met"
sequence_string="CVLTTPCLTQSTAAPAVRASSSPV [SLA]" class_label="criterion not met"
sequence_string="SVEEQLSLISGCPNIQEAVEGAMH [CRYL1]" class_label="criterion met"
